Tested on: PRMT1 (protein arginine N-methyltransferase 1)
test-method-notes: PRMT1 binders on small-molecule microarrays, primary screen, biochemical, small-molecule microarray, 635 nm fluorescence (AID 1088);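 further: binding of Prmt1 protein to compounds spotted on small-molecule microarray slides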
measurement-conditions: small-molecule microarray binding, higher = more signal

compound: [N-]=[N+]=NCc1ccccc1C[C@]1(C(=O)N2CCCCC2)COC(c2ccc(OCCCO)cc2)=N1
study-system: PRMT1 (protein arginine N-methyltransferase 1)
composite z-score: 1.57
--
compound: C=CCNC(=O)[C@H]1[C@@H]2C(=O)O[C@@H](c3ccccc3)[C@@H](c3ccccc3)N2[C@@H](c2ccc(OCCO)cc2)[C@]12C(=O)N(C(=O)OCCOC)c1ccc(C#CCC(C(=O)OC)C(=O)OC)cc12
study-system: PRMT1 (protein arginine N-methyltransferase 1)
composite z-score: 1.54
--
compound: CCCNC(=O)[C@@]1(Sc2ccc(C)cc2)CC(=O)N(Cc2cc(C(F)(F)F)cc(C(F)(F)F)c2)[C@@H]1c1ccc(CO)cc1
study-system: PRMT1 (protein arginine N-methyltransferase 1)
composite z-score: 0.805

----------
test-method-notes: adipocyte viability effects, profiling panel, cell-based, 3T3-L1 adipocytes, calcein-AM fluorescence, 48 h, basal (AID 1163); further: test concentration not given here
measurement-conditions: 3T3-L1 adipocytes viability, higher = more signal
Reported z-score values for the following compounds.
quantity-name: z-score

compound: [N-]=[N+]=NCc1ccccc1[C@H]1OC(c2ccc(OCCCO)cc2)=N[C@@]1(Cc1ccccc1N=[N+]=[N-])C(N)=O
quantity-name: z-score
result: -0.117
//
compound: C=C(C)C1CN([C@H](CO)c2ccccc2)C(=O)/C1=C\c1ccccc1 (some centres not stated)
quantity-name: z-score
result: 1.55
//
compound: COCCOC(=O)N1C(=O)[C@@]2(c3cc(C#CCCO)ccc31)[C@H](c1ccc(O)cc1)N1[C@H](c3ccccc3)[C@H](c3ccccc3)OC(=O)[C@H]1[C@@H]2C(=O)NC[C@H](O)c1ccccc1
quantity-name: z-score
result: 0.617
//
compound: C[N+](C)(C)CCCC[C@@H]1NC(=O)[C@H]2C[C@@H](C(=O)O)[C@@H](c3ccc(O)cc3)N2C1=O
quantity-name: z-score
result: 0.291
//
compound: Cc1ccc(S[C@]2(C(=O)NC(C)C)CC(=O)N(Cc3ccccc3)[C@@H]2c2ccc(CO)cc2)cc1
quantity-name: z-score
result: -0.089
//
compound: CC(C)C[C@H]1NC(=O)CNC(=O)[C@@]23C(=O)N[C@@H](Cc4ccccc4)C2[C@H](C)[C@@]2(C)O[C@H]2C3/C=C/C/C=C\CNC1=O (some centres not stated)
quantity-name: z-score
result: 0.535
//
compound: [N-]=[N+]=Nc1ccccc1C[C@]1(C(=O)N2CCCCC2)N=C(c2ccc(OCCCO)cc2)O[C@H]1c1ccccc1
quantity-name: z-score
result: 0.0946

----------
study-system: E3 ubiquitin-protein ligase XIAP (Homo sapiens) (UniProt P98170)
Sequence (P98170 whole entry, looked up): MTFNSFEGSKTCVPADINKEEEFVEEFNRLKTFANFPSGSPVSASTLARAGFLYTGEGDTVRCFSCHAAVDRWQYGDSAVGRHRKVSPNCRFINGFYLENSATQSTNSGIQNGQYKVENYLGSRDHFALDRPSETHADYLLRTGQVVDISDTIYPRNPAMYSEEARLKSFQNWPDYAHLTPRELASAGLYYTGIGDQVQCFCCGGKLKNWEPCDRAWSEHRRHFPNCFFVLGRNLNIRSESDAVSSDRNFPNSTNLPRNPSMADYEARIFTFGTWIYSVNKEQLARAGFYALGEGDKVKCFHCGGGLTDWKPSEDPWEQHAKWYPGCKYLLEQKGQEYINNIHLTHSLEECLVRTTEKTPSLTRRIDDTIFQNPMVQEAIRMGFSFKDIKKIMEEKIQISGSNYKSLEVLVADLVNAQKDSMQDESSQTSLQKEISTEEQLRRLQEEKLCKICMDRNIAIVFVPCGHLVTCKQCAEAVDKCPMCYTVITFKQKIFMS
test-method-notes: XIAP binders, primary screen, biophysical, small-molecule microarray, fluorescence 635 nm (AID 1181);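 further: score merges 667 nm emission and signal to noise over triplicate slides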
measurement-conditions: small-molecule microarray binding, higher = more signal

compound: CC[C@@H](O[Si](C#C[Si](C(C)C)(C(C)C)C(C)C)(C(C)C)C(C)C)c1cn([C@H](CO)Cc2ccccc2)nn1
composite z-score: -0.207
//
compound: COC(=O)[C@@]1(Cc2ccc(F)cc2)[C@H]2c3cc(C(=O)N(C)C)n(Cc4cccc5ccccc45)c3C[C@H]2CN1C(=O)c1ccccc1
composite z-score: 1.6
//
compound: O=C1NC(=O)C2C1C=CC(C(O)C1CCCCC1)N2Nc1ccccn1 (centres undefined)
composite z-score: -0.0663
//
compound: C#CCN(C(=O)OC(C)(C)C)[C@H](CO)c1ccccc1
composite z-score: -0.005
